The reported measurements were obtained from the RNAGym collection of RNA variant scans (doi:10.7554/elife.90254).

B1: LINE1-full (parent)
chain: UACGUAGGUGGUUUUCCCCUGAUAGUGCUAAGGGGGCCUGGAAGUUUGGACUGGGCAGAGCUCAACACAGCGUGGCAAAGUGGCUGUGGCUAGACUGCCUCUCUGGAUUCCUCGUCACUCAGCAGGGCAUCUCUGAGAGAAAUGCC

Variants of: B1
measurement.protocol: self-cleavage, relative activity (ratio to wild type); higher = more cleavage; in vitro, sequencing; the parent is a self-cleaving ribozyme
We'd kindly ask you to apply these self-cleavage classes: low end (below 0.07), middle (0.07 to below 1), high end (1 or more)

| sequence.chain | cat |
| --- | --- |
| UACGUAGGUGGUUUUCCCCUGAUAGUGCUAAGGGGGCCUGGAAGUUUGGACUGGGCAGAGCUCAACACAGCGUGGCAAAGUGGCUGUGGCUAGACUGCCUCUCUGGAUUCCUCGUAACUCUGCAGGGCAUCUCUGAGAGAAAUGCC [C116A A121U] | high end |
| UACGUAGGUGGUUUUCCCCUGAUAGUGCUAAGGGGGCCUGGCAGUUUGGACUGGGCAGAGCUCAACACAGCGUGGCAAAGUGGCUGUGGCUAGACUGCCUCUCUGGAUUACUCGUCACUCAGCAGGGCAUCUCUGAGAGAAAUGCC [A42C C110A] | high end |
| UACGUAGGUGGUUUUCCCCUGAUAGUGCUAAGGGGGCCUGGAAGUUUGGACUGGGCAGAGCUAAACACAGCGUGGCAAAGUGGCUGUGGCUAGACUACCUCUCUGGAUUCCUCGUCACUCAGCAGGGCAUCUCUGAGAGAAAUGCC [C63A G97A] | low end |
| UACGUAGGUGGGUUUCCCCUGAUAGUGCUAAGGGGGCCUGGAUGUUUGGACUGGGCAGAGCUCAACACAGCGUGGCAAAGUGGCUGUGGCUAGACUGCCUCUCUGGAUUCCUCGUCACUCAGCAGGGCAUCUCUGAGAGAAAUGCC [U12G A43U] | middle |
| UACGUAGGUGGUUUUCCCCUGAUAGUGCUAAGGGGGCCUGGAAGUUUGGACUGGGCAGAGCUCAACACAGCGUGGCAAAGUGGCUGUGCCUAGACUGCCUCUCUGGGUUCCUCGUCACUCAGCAGGGCAUCUCUGAGAGAAAUGCC [G89C A107G] | middle |
| UACGUAGGUGGUUUUCCCCUGAUAGUGCUAAGGGGGCCUGGAAGUUUGGACUGGGCAGAGCCCAACACAGCGUGGCCAAGUGGCUGUGGCUAGACUGCCUCUCUGGAUUCCUCGUCACUCAGCAGGGCAUCUCUGAGAGAAAUGCC [U62C A77C] | low end |
| UACGUAGGUGGUUUUCCCCUGAUAGUGCUAAGGGGGCCUGGAAGUUUGGACUGGGCAGAGCUCAACACAGCGCGGCAAAGCGGCUGUGGCUAGACUGCCUCUCUGGAUUCCUCGUCACUCAGCAGGGCAUCUCUGAGAGAAAUGCC [U73C U81C] | high end |
| UACGUAGGUGGUUUUCCCCUGAUAGUGCUAAGGGGGCCUGGAAGUUUGGACUGGGCAGAGCUCAACACAGCGUGGCAAAGUGGCUGUGGUUAGACAGCCUCUCUGGAUUCCUCGUCACUCAGCAGGGCAUCUCUGAGAGAAAUGCC [C90U U96A] | low end |
| UACGUAGGUGGUUUUCCCCUGAUAGUGCUAAGAGGGCCUGGAAGUUUGGACUGGGCAGAGCUCAACACAGCGUGGCAAAGUGGCUGUGGCUAGACUGCCCCUCUGGAUUCCUCGUCACUCAGCAGGGCAUCUCUGAGAGAAAUGCC [G33A U100C] | high end |
